system: MOLT-4; test: Antiproliferative activity against human MOLT-4 cells assessed as […] cell proliferation at 10 uM incubated for 48 hrs by WST-1 assay relative to control; format: functional
Parameter threshold = 80%. Response is Y when Activity meets or exceeds it, else N.

| smi | category_label |
| --- | --- |
| CCN(CC)c1ccc(CNC(=O)c2n[nH]c3ncc(-c4ccc(S(=O)(=O)C(C)C)cc4)cc23)cc1 | Y |
| CCN(CC)c1ccc(CNC(=O)c2cc3cc(-c4ccc(S(=O)(=O)C(C)C)cc4)cnc3[nH]2)cc1 | Y |
| CS(=O)(=O)c1ccc(-c2cnc3[nH]c(C(=O)N4CCC(c5ccccc5)CC4)cc3c2)cc1 | Y |
| CC(C)S(=O)(=O)c1ccc(-c2cc(C(=O)Nc3ccccc3)n[nH]2)cc1 | Y |
| CS(=O)(=O)c1ccc(-c2cnc3[nH]cc(C(=O)N4CCC(c5ccccc5)CC4)c3c2)cc1 | N |
